molecular target: chimeric CD1a pool B protein [human CD1a lipid binding domain, mouse CD1d Ig domain] (human; mouse, UniProt P06126 18-201; P11609 205-297, limits assumed); test: ELISA, 0.1 µg/ml antibody
Sequence (P06126 other isoform, or with tags, fused parts or gaps mutant limits assumed): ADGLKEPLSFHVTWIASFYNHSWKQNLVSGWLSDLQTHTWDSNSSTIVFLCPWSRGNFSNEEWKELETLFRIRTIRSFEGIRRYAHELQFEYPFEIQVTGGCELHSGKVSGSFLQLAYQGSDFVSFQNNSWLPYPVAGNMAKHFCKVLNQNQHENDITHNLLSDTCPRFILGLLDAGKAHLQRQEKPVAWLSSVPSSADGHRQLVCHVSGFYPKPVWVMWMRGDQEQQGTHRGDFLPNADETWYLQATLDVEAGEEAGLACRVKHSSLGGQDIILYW
parameterMeasured: Optical Density (OD)
Return type: number; implicit unit OD.

In: Please report the recorded Optical Density (OD) for 110 (VR12112) (antibody, V domains shown, also called OX110; antibody 110) VH: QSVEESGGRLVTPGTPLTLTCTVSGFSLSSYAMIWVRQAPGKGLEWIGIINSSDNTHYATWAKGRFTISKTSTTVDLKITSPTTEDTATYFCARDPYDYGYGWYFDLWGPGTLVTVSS VL: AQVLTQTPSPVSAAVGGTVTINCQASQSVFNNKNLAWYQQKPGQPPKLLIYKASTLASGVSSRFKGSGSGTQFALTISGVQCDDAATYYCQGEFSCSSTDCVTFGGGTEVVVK .
Out: 1.02

In: Please report the recorded Optical Density (OD) for 77A (VR11851) (antibody, V domains shown, also called OX77a; antibody 77a) VH: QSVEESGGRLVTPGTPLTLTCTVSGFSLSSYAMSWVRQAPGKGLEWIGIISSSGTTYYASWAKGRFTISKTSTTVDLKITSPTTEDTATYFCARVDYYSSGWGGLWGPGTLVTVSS VL: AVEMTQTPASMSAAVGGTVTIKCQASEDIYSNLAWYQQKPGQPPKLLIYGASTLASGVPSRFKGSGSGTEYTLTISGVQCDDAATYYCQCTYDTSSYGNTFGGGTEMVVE .
Out: 1.25

In: Please report the recorded Optical Density (OD) for 116 (VR12117) (antibody, V domains shown, also called OX116) VH: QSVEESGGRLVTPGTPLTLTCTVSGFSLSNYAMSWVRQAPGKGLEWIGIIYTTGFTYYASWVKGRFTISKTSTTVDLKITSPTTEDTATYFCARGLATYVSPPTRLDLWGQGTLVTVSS VL: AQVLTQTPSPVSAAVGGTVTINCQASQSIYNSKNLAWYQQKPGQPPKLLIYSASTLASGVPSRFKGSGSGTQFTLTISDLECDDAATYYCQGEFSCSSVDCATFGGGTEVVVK .
Out: 1.25

In: Please report the recorded Optical Density (OD) for 111 (VR12113) (antibody, V domains shown, also called OX111) VH: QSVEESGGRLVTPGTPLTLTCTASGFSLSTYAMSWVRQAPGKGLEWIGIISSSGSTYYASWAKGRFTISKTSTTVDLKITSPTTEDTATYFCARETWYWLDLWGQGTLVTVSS VL: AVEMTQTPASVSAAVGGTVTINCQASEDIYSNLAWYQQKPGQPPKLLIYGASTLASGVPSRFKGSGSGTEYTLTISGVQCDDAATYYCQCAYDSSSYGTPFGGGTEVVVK .
Out: 1.25

In: Please report the recorded Optical Density (OD) for 16 (VR11834) (antibody, V domains shown, also called OX16; antibody 16) VH: EVQLVESGGGLVKPGGSLKLSCAASGFTFSNYAMSWVRQTPEKRLEWVAAINSNGGSAYYPDTVKDRFTISRDNAKNTLYLQMSSLRSEDTALYYCARRFYYDYGWFAYWGQGTLVTVSS VL: DIVLTQSPASLSASVGETVTITCRASENIDSYLAWYQQKQGKSPQLLVYAATLLADGVPSRFSGSGSGTQYSLKINSLQSEDVARYYCQHYYSSPWTFGGGTKLEIK .
Out: 0.7
